test: growth inhibitors of H69AR lung tumor, primary screen, human, duplicate replicates (AID 580); conditions: H69AR lung tumor cells viability, ATP luminescence, 72 h; at 10 µM; stronger effect = lower value;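 also: 100% = mean luminescence of untreated wells and 0% = no signal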
The source made the active and inactive calls.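 The calls were made as follows: active = viability at or under a set limit in both replicates, limit being median viability minus 3 SD (cut at about 48% in these data, passing the limit was not always enough); inconclusive = at or under the limit in just one replicate; inactive = at or above the limit in both replicates.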
Measured viability, listed per entry for reference.

Use the examples below as a reference point.
> print(dat)
                                   compound    value.observed
1  CC(=O)N1CCc2cc(S(=O)(=O)CCC(=O)Nc3cccc(F)c3)ccc21  93.8% (inactive)
2  CC(=O)OCC(=O)[C@@]1(O)CC[C@H]2[C@@H]3CCC4=CC(=O)C=C[C@]4(C)[C@H]3[C@@H](O)C[C@@]21C  91.1% (inactive)
3  CC1CCCCC1NC(=O)COc1ccc(-n2cnnn2)cc1 (stereo not given)   101% (inactive)
4  COC(=O)c1ccccc1NC(=O)CN1CCC(n2nnc3cc(F)ccc32)CC1   100% (inactive)

Proceeding to the next compound to report its viability.
Ask | Would you kindly share the measured viability for CCOc1ccc2c(c1)n(CO)c(=S)n2CO ?
Reply | 89.6% (inactive)
